For each record, write down the corresponding pEC50.
# assayed-target: T1, GST-ZO-1 PDZ domain 2 fusion protein (human)
# T1 chain: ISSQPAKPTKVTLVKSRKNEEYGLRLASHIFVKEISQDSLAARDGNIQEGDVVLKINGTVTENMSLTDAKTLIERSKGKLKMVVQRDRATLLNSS
# test-protocol: G3 assay titration, immobilised GST-PDZ
pEC50: −log10 of the molar value. No end group written: not given here. *: point of attachment. Biotin = O=C1N[C@H]2[C@H](CS[C@H]2CCCCC(=O)*)N1

Answered cases to consult:
>>> df
                                     binder  measured_endpoint  test_value
0  Biotin-YGRKKRRQRRRARGDRTIIY [Peptide #1848 (biotin-…)]              pEC50      > 7.70
1  Biotin-YGRKKRRQRRRARGDRKIRV [Peptide #1836 (biotin-…)]              pEC50      > 8.00
2  Biotin-YGRKKRRQRRRARGDRLVSL [Peptide #1843 (biotin-…)]              pEC50        7.77
3  Biotin-YGRKKRRQRRRARGDRKYIV [Peptide #1838 (biotin-…)]              pEC50      > 7.00

Below are some binders; for each one, tell me its pEC50.
1. Biotin-YGRKKRRQRRRARTDRKVEV [Peptide #1837 (biotin-…)]
2. YGRKKRRQRRRSTNSVRLML (not fully specified)

OUTPUT:
["> 7.70", 7.48]
